Conditions: in acetone, 318.15 K

smiles record	solubility (mole fraction)
NC(=O)c1ccccc1	0.149

----------
Conditions: in acetone, 308.15 K

smiles record	solubility (mole fraction)
NC(=O)c1ccccc1	0.107

----------
Details: in ethyl acetate, 313.15 K

smiles record	solubility (mole fraction)
NC(=O)c1ccccc1	0.0518

----------
Conditions: in water, 303.15 K

smiles record	solubility (mole fraction)
NC(=O)c1ccccc1	0.00261

----------
Settings: in water, 283.15 K
measured endpoint: solubility (mole fraction)

smiles record	result number
NC(=O)c1ccccc1	0.00099

----------
Conditions: in n-butanol, 298.15 K
measured endpoint: solubility (mole fraction)

smiles record	measured endpoint	result number
NC(=O)c1ccccc1	solubility (mole fraction)	0.0509
